- System: HPV-16 and HPV-18
- test: High risk HPV origin plasmid replication assay (qPCR) in HEK 293 cells
- Assay type: cell-based, human papillomavirus
- condition.summary: high-risk HPV tested was HPV-16 and HPV-18; HEK 293 cells, 48 h incubation; read-out: High Risk (EC50)
- Method: An origin-containing low risk or high risk HPV plasmid was co-transfected with homologous E1 and E2 protein expression vectors into HEK 293 cells. At 4 h post-transfection, cells were treated with test compound dilutions and then incubated for 48 h. HPV origin plasmid replication was detected after digestion with DpnI and exonuclease III to remove unreplicated transfected plasmids. Remaining replicated DNA was quantified by quantitative real time PCR (qPCR). […]
pEC50: −log10 of the molar value.
measurement.kind: pEC50

| compound | test.result |
| --- | --- |
| CCCCCCCCCCCCCCCCCCOCCOP(=O)(O)COCCn1cnc2c(=O)[nH]c(N)nc21 | > 6.52 |

Where do the numbers come from? From patent US12521397B2.
